- System: VchCAST RNA-guided transposition machinery (E. coli BL21(DE3) host, lacZ target)
- Test Description: relative integration efficiency (T-RL orientation) vs wild-type transposon end (log2 (normalized fold change)); transposon end mutated: right end (5 bp flank + 75 bp right end); higher = more efficient transposition
relative integration efficiency (log2): recorded values
Write no unit; give the number alone.

{"Residue String": "ACATTTGTTGATACAACCATAAAATGATAATTACACCCATAAATTGATAATTCGACACAAACGCCCGGTCGCGGTAAGAGGATCATAGTCAGACCAACATTGCTACGACCCGTATTCGCACCGACAC", "relative integration efficiency (log2)": 0.636}

-- ask Query (sequence): ACATTTGTTGATACAACCATAAAATGATAATTACACCCATAAATTGATAATTATCACACCCATAAATTGATATTGCCTCTGATCACAACCATAAAATGATAATTATAGTCAGACCAAGCACCGACAC ; field requested: relative integration efficiency (log2)
-- reply -0.0149

-- ask Moving on to ACATTAGTTGATACAACCATAAAATGATAATTACACCCATAAATTCATAATTATCACACCCAATTTAACTATAACGCTCTGATCATAGTCAGACCAACATTGCTACGACCCGTATTCGCACCGACAC
-- reply -6.87

###

Measured relative integration efficiency (log2) by item
- Tested on: VchCAST RNA-guided transposition machinery (E. coli BL21(DE3) host, lacZ target)
- Test Description: relative integration efficiency (T-LR orientation) vs wild-type transposon end (log2 (normalized fold change)); transposon end mutated: right end (5 bp flank + 75 bp right end); higher = more efficient transposition

Look over these answered cases.
{"Residue String": "ACATTTGTTGATACCACCATAAAATGGTAATTCCACCCATACATTGATAATTATCACACCCAATTTAACTATAACGCTCTGATCATAGTCAGACCAACATTGCTACGACCCGTATTCGCACCGACAC", "relative integration efficiency (log2)": 0.278}
{"Residue String": "ACATTTGTTGATACAACCATAAAATGATAATTACACCCATAAATTGATAATTATGACACCGAATTTAACTATAACGCTCTGATCATAGTCAGACCAACATTGCTACGACCCGTATTCGCACCGACAC", "relative integration efficiency (log2)": 2.37}
{"Residue String": "ACATTTGTTGATACAACCATAATTTGATAATTACACCCATAAATTGATAATTATCACACCCATAAATTGATATTGCCTCTGATCATAGTCAGACCAACATTGCTACGACCCGTATTCGCACCGACAC", "relative integration efficiency (log2)": -0.168}
{"Residue String": "ACATTTGTTGATAAAACCATACGTTGATTTTACGAAACCATACGCTGAAATAATCACACCCATAAATTGATATTGCCTCTGATCATAGTCAGACCAACATTGCTACGACCCGTATTCGCACCGACAC", "relative integration efficiency (log2)": -3.87}

Next:
-- ask Give its relative integration efficiency (log2) value. Item: ACATTTGTACATACAACCATAAAATGATAATTACACCCATAAATTGATAATTATCACACCCATAAATTGATATTGCCTCTGATCATAGTCAGACCAACATTGCTACGACCCGTATTCGCACCGACAC
-- reply -1.97
